B1: CPXM2 (parent)
chain: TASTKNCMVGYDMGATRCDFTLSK

# Variants of: B1
# test.details: protein stability index of a GFP-peptide fusion (GPS, HEK-293T) (PSI 1-6); higher = more stable;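 also: lentivirally expressed fusions sorted by FACS into six bins by GFP to DsRed ratio, PSI derived from sequencing read proportions per bin multiplied by bin number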
# study.conditions: c terminus: a fixed tail appended
I'd appreciate it if you could supply protein stability index values for the items below.
Give bare numbers.

L22H; 3.06
Y11K; 2.96
T16R; 3.06

Now take the following variant into account.
Any idea what protein stability index was measured for A2Q ?
2.94

Cited source for all entries: the supplement of paper PMC10567573
